system: T1, human TGFβ1 (human, UniProt P01137 279-390)
T1 construct: also called TGFβ1 homodimer
T1 sequence (P01137 279-390 limits assumed): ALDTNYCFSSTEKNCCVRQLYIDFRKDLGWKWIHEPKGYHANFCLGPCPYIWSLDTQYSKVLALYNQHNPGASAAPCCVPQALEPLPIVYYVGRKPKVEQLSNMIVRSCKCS
protocol_description: Biacore off-rate vs wt GC1008, 50 nM
quantity_name: kd var/kd wt
One number for each entry.

>>> measured_number("S30I (antibody, V domains shown, GC1008 IgG4 variant) VH: QVQLVQSGAEVKKPGSSVKVSCKASGYTFISNVISWVRQAPGQGLEWMGGVIPIVDIANYAQRFKGRVTITADESTSTTYMELSSLRSEDTAVYYCASTLGLVLDAMDYWGQGTLVTVSS VL: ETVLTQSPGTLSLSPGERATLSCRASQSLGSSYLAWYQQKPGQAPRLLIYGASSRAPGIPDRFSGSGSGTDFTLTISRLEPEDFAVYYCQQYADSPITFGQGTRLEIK")
1.4

As a next step, examine the binder that follows.
IN: If you can, please state the reported kd var/kd wt value of S30P (antibody, V domains shown, GC1008 IgG4 variant) VH: QVQLVQSGAEVKKPGSSVKVSCKASGYTFPSNVISWVRQAPGQGLEWMGGVIPIVDIANYAQRFKGRVTITADESTSTTYMELSSLRSEDTAVYYCASTLGLVLDAMDYWGQGTLVTVSS VL: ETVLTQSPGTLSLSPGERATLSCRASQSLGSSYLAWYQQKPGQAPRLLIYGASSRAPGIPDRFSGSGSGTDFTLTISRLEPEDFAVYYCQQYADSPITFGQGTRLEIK .
OUT: 1.2

// provenance: patent US20170342144A1
